FYI, the data here is from patent US10206907B2.

Property: IC50; scope: individual compounds
# tested-target: Recombinant human JAK2 catalytic domain (Homo sapiens (Human), UniProt O60674)
# Sequence (O60674 808-1132): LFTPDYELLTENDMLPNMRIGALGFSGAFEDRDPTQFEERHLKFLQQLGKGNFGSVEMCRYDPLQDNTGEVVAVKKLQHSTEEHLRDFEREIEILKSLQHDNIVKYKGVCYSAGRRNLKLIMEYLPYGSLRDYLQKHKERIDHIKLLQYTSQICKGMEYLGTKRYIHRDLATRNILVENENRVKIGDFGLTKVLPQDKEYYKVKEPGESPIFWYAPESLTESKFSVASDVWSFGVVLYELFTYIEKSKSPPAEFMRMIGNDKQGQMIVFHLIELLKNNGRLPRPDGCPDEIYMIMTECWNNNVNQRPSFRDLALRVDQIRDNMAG
# assay-procedure: JAK2 inhibition assay
# Type: biochemical
# condition-notes: semi-quantitative score
# Protocol: After 90 min at 30° C., reactions were stopped by adding of 25 μL/well of 150 mM phosphoric acid. […] Plates were washed 6 times with 300 μL per well of a 75 mM phosphoric acid solution and the bottom of the plates was sealed. 40 μL/well of Microscint-20 was added, the top of the plates was sealed and readout was performed using the Topcount (Perkin Elmer). […]

Answered examples (4):
{"compound": "CCOC1CCN(Cc2ccc(-c3cccc4nc(NC(=O)C5CC5)nn34)cc2)CC1", "readout-kind": "IC50", "measured-value": "> 1000 nM"}
{"compound": "O=C(Nc1nc2cccc(-c3ccc(CN4CC(F)(F)C4)cc3)n2n1)C1CC1", "readout-kind": "IC50", "measured-value": "101 to 500 nM"}
{"compound": "NC(=O)C1CCCCN1C(=O)c1ccc(-c2cccc3nc(NC(=O)C4CC4)nn23)cc1 (centres unmarked)", "readout-kind": "IC50", "measured-value": "101 to 500 nM"}
{"compound": "CC(=O)N(C)C1CCN(Cc2ccc(-c3cccc4nc(NC(=O)C5CC5)nn34)cc2)C1 (centres unmarked)", "readout-kind": "IC50", "measured-value": "101 to 500 nM"}

Q: Any idea what IC50 was measured for O=C(Nc1nc2cccc(-c3ccc(CN4CCOCC4=O)cc3)n2n1)C1CC1 ?
Result: 501 to 1000 nM

Q: Need IC50, item O=C(Nc1nc2cccc(-c3ccc(OCc4ccc[n+]([O-])c4)cc3)n2n1)C1CC1
Result: 101 to 500 nM

Q: // IC50 lookup, key: CN(C)C1CN(C(=O)c2ccc(-c3cccc4nc(NC(=O)C5CC5)nn34)cc2)C1
Result: > 1000 nM

Q: Quick check: IC50 of CC(=O)N(C)C1CN(Cc2ccc(-c3cccc4nc(NC(=O)C5CC5)nn34)cc2)C1 ?
Result: > 1000 nM

Q: Quick check: IC50 of O=C(Nc1nc2cccc(-c3ccc(CN4CCC(F)CC4)cc3)n2n1)C1CC1 ?
Result: < 100 nM

Q: What value of measured IC50 is listed for O=C(Nc1nc2cccc(-c3ccc(C(=O)N4CCS(=O)(=O)CC4)cc3)n2n1)C1CC1 ?
Result: < 100 nM

Q: Quick one: IC50 for O=C(Nc1nc2cccc(-c3ccc(CNc4ccon4)cc3)n2n1)C1CC1 ?
Result: < 100 nM

Q: Endpoint output: IC50 of N#CC1CN(c2ccc(-c3cccc4nc(NC(=O)C5CC5)nn34)cc2)C1 . Value?
Result: 101 to 500 nM

Q: Name the recorded IC50 for O=C(Nc1nc2cccc(-c3ccc(CNc4ccc(Cl)cc4F)cc3)n2n1)C1CC1 .
Result: < 100 nM
